Tested on: CWR22R
procedureText: Cytotoxicity against PSMA-positive human 22Rv1 cells assessed as reduction in cell viability measured after 72 hrs by MTT assay
Assay type: functional
condition: 22Rv1, 72 h
Measured log10 of CC50, listed per entry for reference.
// units: nM (pre-log); metric: CC50; scale: log10

Worked cases, answers included:
CC(=O)O[C@H]1C(=O)[C@@]2(C)[C@H]([C@H](OC(=O)c3ccccc3)[C@]3(O)C[C@H](OC(=O)[C@H](OC(=O)CCCc4cn(CCCCCC(=O)N(CCCC[C@H](NC(=O)N[C@@H](CCC(=O)O)C(=O)O)C(=O)O)Cc5ccc(F)cc5)nn4)[C@@H](NC(=O)c4ccccc4)c4ccccc4)C(C)=C1C3(C)C)[C@]1(OC(C)=O)CO[C@@H]1C[C@@H]2O | 3.12
CC(=O)O[C@H]1C(=O)[C@@]2(C)[C@H]([C@H](OC(=O)c3ccccc3)[C@]3(O)C[C@H](OC(=O)[C@H](OC(=O)CCCc4cn(CCCCCCCCCCC(=O)N(CCCC[C@H](NC(=O)N[C@@H](CCC(=O)O)C(=O)O)C(=O)O)Cc5ccc(F)cc5)nn4)[C@@H](NC(=O)c4ccccc4)c4ccccc4)C(C)=C1C3(C)C)[C@]1(OC(C)=O)CO[C@@H]1C[C@@H]2O | 3.06
CC(=O)O[C@H]1C(=O)[C@@]2(C)[C@H]([C@H](OC(=O)c3ccccc3)[C@]3(O)C[C@H](OC(=O)[C@H](OC(=O)CCCc4cn(CCCCCC(=O)NCCCC[C@H](NC(=O)N[C@@H](CCC(=O)O)C(=O)O)C(=O)O)nn4)[C@@H](NC(=O)c4ccccc4)c4ccccc4)C(C)=C1C3(C)C)[C@]1(OC(C)=O)CO[C@@H]1C[C@@H]2O | 2.08
CC(=O)O[C@H]1C(=O)[C@]2(C)[C@@H](OC(=O)CCCc3cn(CCCCCCCCCCC(=O)NCCCC[C@H](NC(=O)N[C@@H](CCC(=O)O)C(=O)O)C(=O)O)nn3)C[C@H]3OC[C@@]3(OC(C)=O)[C@H]2[C@H](OC(=O)c2ccccc2)[C@]2(O)C[C@H](OC(=O)[C@H](O)[C@@H](NC(=O)c3ccccc3)c3ccccc3)C(C)=C1C2(C)C | 3.42
CC(=O)O[C@H]1C(=O)[C@@]2(C)[C@H]([C@H](OC(=O)c3ccccc3)[C@]3(O)C[C@H](OC(=O)[C@H](OC(=O)CCCc4cn(CCCCCC(=O)N(CCCC[C@H](NC(=O)N[C@@H](CCC(=O)O)C(=O)O)C(=O)O)Cc5ccc(Br)cc5)nn4)[C@@H](NC(=O)c4ccccc4)c4ccccc4)C(C)=C1C3(C)C)[C@]1(OC(C)=O)CO[C@@H]1C[C@@H]2O | 3.05
CC(=O)O[C@H]1C(=O)[C@@]2(C)[C@H]([C@H](OC(=O)c3ccccc3)[C@]3(O)C[C@H](OC(=O)[C@H](OC(=O)CCCc4cn(CCCCCCCCCCC(=O)N(CCCC[C@H](NC(=O)N[C@@H](CCC(=O)O)C(=O)O)C(=O)O)Cc5ccc(Cl)cc5)nn4)[C@@H](NC(=O)c4ccccc4)c4ccccc4)C(C)=C1C3(C)C)[C@]1(OC(C)=O)CO[C@@H]1C[C@@H]2O | 2.08

Please find the next compound below.
[Q] Which log10 of CC50 is listed for CC(=O)O[C@H]1C(=O)[C@@]2(C)[C@H]([C@H](OC(=O)c3ccccc3)[C@]3(O)C[C@H](OC(=O)[C@H](OC(=O)CCCc4cn(CCCCCCCCCCC(=O)N(CCCC[C@H](NC(=O)N[C@@H](CCC(=O)O)C(=O)O)C(=O)O)Cc5ccc(Br)cc5)nn4)[C@@H](NC(=O)c4ccccc4)c4ccccc4)C(C)=C1C3(C)C)[C@]1(OC(C)=O)CO[C@@H]1C[C@@H]2O ?
[A] 1.72
